- system: Glutamate [NMDA] receptor
- experimental-details: Mean inhibitory concentration against [3H]MK-801 binding to porcine N-methyl-D-aspartate (NMDA) glutamate receptor; n=3
- Type: protein-complex assay, Sus scrofa
Assignment: determine reported pIC50 for the given compounds.
Answers are plain numbers, as −log10 of the molar value.

// input: 4 compounds below; output: pIC50 for each
1. COc1cc2c(cc1OC)[C@H](C[C@@H](O)c1ccc(Cl)cc1)N(C)CC2
2. COc1ccc([C@H](O)C[C@@H]2NCCc3cc(OC)c(OC)cc32)cc1
3. COc1ccc([C@@H](O)C[C@H]2NCCc3cc(OC)c(OC)cc32)cc1
4. COc1cc2c(cc1OC)[C@@H](C[C@@H](O)c1ccc(Cl)cc1)NCC2

4.35
3.96
3.85
4.43

----------
- system: Glutamate [NMDA] receptor
- experimental-details: Mean inhibitory concentration against [3H]ifenprodil binding to porcine N-methyl-D-aspartate (NMDA) glutamate receptor; n=1
- Format: protein-complex assay, Sus scrofa
Kindly supply the reported IC50 values for the records listed here.
One number for each entry, in µM.

Look over these answered cases.
COc1cc2c(cc1OC)[C@@H](C[C@@H](O)c1ccc(Cl)cc1)NCC2; 290
COc1ccc([C@@H](O)C[C@H]2NCCc3cc(OC)c(OC)cc32)cc1; 420

Respond only with IC50 recorded for COc1ccc([C@H](O)C[C@@H]2NCCc3cc(OC)c(OC)cc32)cc1
243

----------
- system: Glutamate [NMDA] receptor
- experimental-details: Mean inhibitory concentration against [3H]ifenprodil binding to porcine N-methyl-D-aspartate (NMDA) glutamate receptor; n=3
- Assay type: protein-complex assay, Sus scrofa
Would you kindly list IC50 for each of these compounds?
Numbers only, in µM.

Consider the worked cases shown below.
COc1cc2c(cc1OC)[C@@H](C[C@H](O)c1ccc(Cl)cc1)N(C)CC2; 24
COc1cc2c(cc1OC)[C@H](C[C@@H](O)c1ccc(Cl)cc1)NCC2; 95
COc1cc2c(cc1OC)[C@H](C[C@H](O)c1ccc(Cl)cc1)NCC2; 1.1

Report the value of IC50 obtained on Glutamate [NMDA] receptor for COc1ccc([C@@H](O)C[C@@H]2NCCc3cc(OC)c(OC)cc32)cc1 .
14

----------
- system: Glutamate [NMDA] receptor (Homo sapiens) (UniProt Q05586+Q12879+Q13224+O15399+O60391+Q14957+Q8TCU5)
- experimental-details: Specific binding of [3H]ifenprodil to N-methyl-D-aspartate (NMDA) glutamate receptor remaining in presence of 100 uM inhibitor
- Type: protein-complex assay
- condition-label: Sus scrofa
Kindly state Binding for each of the entries shown.
Answers are plain numbers, in %.

// solved cases for Binding follow
COc1ccc([C@@H](O)C[C@@H]2c3cc(OC)c(OC)cc3CCN2C)cc1; 87
COc1ccc([C@H](O)C[C@H]2c3cc(OC)c(OC)cc3CCN2C)cc1; 34

Provide the reported Binding of each entry below, same order.
1. COc1ccc([C@H](O)C[C@@H]2c3cc(OC)c(OC)cc3CCN2C)cc1
2. COc1ccc([C@H](O)C[C@H]2NCCc3cc(OC)c(OC)cc32)cc1

1: 50; 2: 63

----------
Hi there, I'd appreciate the recorded IC50 for every entry that follows.
- system: Glutamate [NMDA] receptor
- experimental-details: Mean inhibitory concentration against [3H]ifenprodil binding to porcine N-methyl-D-aspartate (NMDA) glutamate receptor; n=3
- Assay type: protein-complex assay, Sus scrofa
Give bare numbers, in µM.

COc1cc2c(cc1OC)[C@H](C[C@H](O)c1ccc(Cl)cc1)N(C)CC2; 0.059

I have 2 compounds here; please give me IC50 for each one.
1. COc1ccc([C@@H](O)C[C@H]2c3cc(OC)c(OC)cc3CCN2C)cc1
2. COc1cc2c(cc1OC)[C@@H](C[C@H](O)c1ccc(Cl)cc1)NCC2

1: 0.24; 2: 43

State recorded IC50 for all listed compounds.
1. COc1cc2c(cc1OC)[C@@H](C[C@@H](O)c1ccc(Cl)cc1)N(C)CC2
2. COc1cc2c(cc1OC)[C@H](C[C@@H](O)c1ccc(Cl)cc1)N(C)CC2

100
52
